Every entry's value here was drawn from paper doi:10.1101/2025.11.20.689572v1.

- ASSAY_TARGET: MOR (Homo sapiens, UniProt P35372)
- Construct: gene OPRM1
- Sequence (P35372 whole entry): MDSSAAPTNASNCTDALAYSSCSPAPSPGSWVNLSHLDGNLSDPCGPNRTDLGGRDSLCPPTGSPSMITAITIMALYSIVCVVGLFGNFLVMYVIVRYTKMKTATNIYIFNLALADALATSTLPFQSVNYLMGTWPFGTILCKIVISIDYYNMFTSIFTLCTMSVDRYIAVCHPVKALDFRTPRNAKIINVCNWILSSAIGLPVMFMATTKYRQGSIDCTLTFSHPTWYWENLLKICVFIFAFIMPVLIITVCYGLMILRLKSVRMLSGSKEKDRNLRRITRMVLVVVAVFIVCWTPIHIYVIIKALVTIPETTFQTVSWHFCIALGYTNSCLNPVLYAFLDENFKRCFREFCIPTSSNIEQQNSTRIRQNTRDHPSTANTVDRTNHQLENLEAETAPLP
- METHOD_SUMMARY: biochemical
- Design: species or system HEK293; PDSP competitive radioligand binding, membranes of transfected HEK293 cells, filtration, Ki by Cheng-Prusoff
READOUT_TYPE: Ki

Tested on MOR (Homo sapiens, UniProt P35372): CCCCCCOc1nsnc1C1=CCCN(C)C1 [Xanomeline] . Observed Ki: > 10 µM

----------
- ASSAY_TARGET: HRH4 (Homo sapiens, UniProt Q9H3N8)
- Sequence (Q9H3N8 whole entry): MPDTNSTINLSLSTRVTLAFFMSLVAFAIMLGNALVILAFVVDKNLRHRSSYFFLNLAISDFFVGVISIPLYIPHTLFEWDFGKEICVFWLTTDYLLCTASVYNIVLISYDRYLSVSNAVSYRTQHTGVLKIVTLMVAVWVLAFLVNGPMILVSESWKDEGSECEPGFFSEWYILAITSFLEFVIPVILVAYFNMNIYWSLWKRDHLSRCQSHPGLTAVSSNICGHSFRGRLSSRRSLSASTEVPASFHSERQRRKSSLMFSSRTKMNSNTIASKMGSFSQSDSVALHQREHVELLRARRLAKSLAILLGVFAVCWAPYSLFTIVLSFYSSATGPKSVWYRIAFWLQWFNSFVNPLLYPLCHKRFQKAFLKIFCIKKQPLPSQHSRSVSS
- METHOD_SUMMARY: cell-based
- Set-up: species or system HEK293; TRUPATH BRET2 G-protein dissociation; antagonist mode against agonist EC80
- PROTOCOL_CONDITIONS: N-Desmethyl Xanomeline, Assay=Gi3; agonist mode
READOUT_TYPE: pEC50
Units for pEC50: none; it is -log10 of a concentration expressed in mol/L.

# pEC50 (compound: "CCCCCCOc1nsnc1C1=CCCNC1" ) is 5.20
